- TGT: hrPARP-1 (human recombinant) (Homo sapiens, UniProt P09874)
- Sequence (P09874 whole entry): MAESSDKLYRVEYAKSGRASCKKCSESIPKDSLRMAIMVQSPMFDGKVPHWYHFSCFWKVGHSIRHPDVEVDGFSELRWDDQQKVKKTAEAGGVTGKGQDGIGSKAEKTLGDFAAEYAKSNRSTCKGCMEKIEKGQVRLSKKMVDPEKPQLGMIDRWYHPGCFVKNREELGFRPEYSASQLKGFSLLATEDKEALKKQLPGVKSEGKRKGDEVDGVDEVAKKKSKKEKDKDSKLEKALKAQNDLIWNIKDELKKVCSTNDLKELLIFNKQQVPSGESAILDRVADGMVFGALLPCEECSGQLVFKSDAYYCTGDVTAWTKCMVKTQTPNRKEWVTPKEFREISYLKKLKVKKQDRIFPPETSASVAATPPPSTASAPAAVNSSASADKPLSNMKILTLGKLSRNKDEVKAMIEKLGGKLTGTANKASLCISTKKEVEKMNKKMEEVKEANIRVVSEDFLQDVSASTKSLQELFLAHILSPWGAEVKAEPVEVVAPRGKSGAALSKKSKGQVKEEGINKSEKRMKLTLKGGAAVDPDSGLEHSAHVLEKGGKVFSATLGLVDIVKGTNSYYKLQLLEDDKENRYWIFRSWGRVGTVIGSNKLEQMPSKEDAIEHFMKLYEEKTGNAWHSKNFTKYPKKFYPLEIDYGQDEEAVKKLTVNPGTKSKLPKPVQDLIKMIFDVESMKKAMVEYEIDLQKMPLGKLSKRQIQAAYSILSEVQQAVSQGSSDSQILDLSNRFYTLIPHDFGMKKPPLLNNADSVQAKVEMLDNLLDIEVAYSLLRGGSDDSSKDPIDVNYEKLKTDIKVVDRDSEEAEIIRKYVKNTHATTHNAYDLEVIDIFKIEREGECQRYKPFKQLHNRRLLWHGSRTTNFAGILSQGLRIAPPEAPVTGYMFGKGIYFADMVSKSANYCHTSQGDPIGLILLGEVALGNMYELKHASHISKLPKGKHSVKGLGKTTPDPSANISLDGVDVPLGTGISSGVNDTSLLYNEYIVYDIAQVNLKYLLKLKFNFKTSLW
- ASSAY_PROTOCOL: Functional assessment of human PARP-1 enzymatic activity
- SETTINGS: 1 U hrPARP-1, 15 μg/mL activated DNA, 5 μM NAD+, 20 min room temperature, fluorescence readout
PARAMETER: IC50 (nM)

COMPOUND: C[C@@H]1CN(Cc2nc3c([nH]c(=O)c4cccc(O)c43)s2)C[C@H](C)O1
PARAMETER: IC50
OBSERVED_VALUE: 3090

P. O=c1[nH]c2sc(CN3CCC[C@@H]3C(F)(F)F)nc2c2c(O)cccc12
Q. O=c1[nH]c2sc(CN3CCOCC3)nc2c2c(O)cccc12
Among P and Q , whose measured IC50 is the smaller figure? Write the label of whichever entry you select.
Q
(Q: 18.3 nM, P: 3500 nM)

P. CN(C)[C@@H]1CCN(Cc2nc3c([nH]c(=O)c4cccc(O)c43)s2)C1
Q. CN(C)CCc1nc2c([nH]c(=O)c3ccccc32)s1
Compare the recorded IC50 of P and Q ; state which is larger. Write the label of whichever entry you select.
Q
(Q: 358 nM, P: 223 nM)

* * *

- TGT: hrPARP-1 (human recombinant) (Homo sapiens, UniProt P09874)
- ASSAY_PROTOCOL: Functional assessment of human PARP-1 enzymatic activity
- SETTINGS: 1 U hrPARP-1, 15 μg/mL activated DNA, 5 μM NAD+, 20 min room temperature, fluorescence readout
pIC50: −log10 of the molar value. Where a name gives a salt, the structure may show the parent alone.
PARAMETER: pIC50

COMPOUND: C[C@@H]1CCC[C@H](C)N1Cc1nc2c([nH]c(=O)c3cccc(O)c32)s1
TGT: hrPARP-1 (human recombinant) (Homo sapiens, UniProt P09874)
pIC50: 5.82
//
COMPOUND: CN(C)Cc1nc2c([nH]c(=O)c3ccccc32)s1 [Example 1, hydrochloride]
TGT: hrPARP-1 (human recombinant) (Homo sapiens, UniProt P09874)
pIC50: 6.42
//
COMPOUND: O=c1[nH]c2sc(CN3CCCC4CCCCC43)nc2c2c(O)cccc12 (centres unmarked)
TGT: hrPARP-1 (human recombinant) (Homo sapiens, UniProt P09874)
pIC50: 5.61
//
COMPOUND: CN(C)CC#Cc1nc2c([nH]c(=O)c3ccccc32)s1
TGT: hrPARP-1 (human recombinant) (Homo sapiens, UniProt P09874)
pIC50: 6.38
//
COMPOUND: O=c1[nH]c2sc(CN3CCCCC3)nc2c2c(O)cccc12
TGT: hrPARP-1 (human recombinant) (Homo sapiens, UniProt P09874)
pIC50: 5.86
//
COMPOUND: CN(C)Cc1nc2c([nH]c(=O)c3cccc(O)c32)s1
TGT: hrPARP-1 (human recombinant) (Homo sapiens, UniProt P09874)
pIC50: 7.00

P. O=c1[nH]c2sc(CN3CCCC3)nc2c2c(O)cccc12
Q. CC1CCCN1Cc1nc2c([nH]c(=O)c3cccc(O)c32)s1 (centres unmarked)
Among P and Q , whose measured pIC50 is the smaller figure? Write the label of whichever entry you select.
Q
(Q: 6.13, P: 6.95)
